src = ChEMBL document CHEMBL1125259

# Activity (c.p.m. 50ul-1) listing for each entry below
- test-target: Human immunodeficiency virus type 1 reverse transcriptase (Human immunodeficiency virus 1)
- test-description: Compound ability to inhibit the production of HIV reverse transcriptase (RT) in preinfected PBL (peripheral blood lymphocytes) at 10 days at a concentration 1 uM
- Format: functional
measurement-name: Activity (c.p.m. 50ul-1)

>>> measured_value("Cc1cn([C@H]2C[C@H](N=[N+]=[N-])[C@@H](CO)O2)c(=O)[nH]c1=O [ZIDOVUDINE]")
757
>>> measured_value("Cc1cn([C@H]2C[C@H](N=[N+]=[N-])[C@@H](COP(=O)(O)OC[C@H]3OC(O)[C@@H](O)[C@@H](O)[C@@H]3O)O2)c(=O)[nH]c1=O (some centres not stated)")
3130
>>> measured_value("CCCCCCCCCCCCCCCCOP(=O)(OC[C@H]1OC(O)[C@H](O)[C@@H](O)[C@@H]1O)OC[C@H]1OC(n2cc(C)c(=O)[nH]c2=O)C[C@@H]1N=[N+]=[N-] (some centres not stated)")
26300
>>> measured_value("CCCCCCCCCCCCCCCCOP(=O)(OC[C@H]1OC(O)[C@@H](O)[C@@H](O)[C@@H]1O)OC[C@H]1OC(n2cc(C)c(=O)[nH]c2=O)C[C@@H]1N=[N+]=[N-] (some centres not stated)")
71500
>>> measured_value("Cc1cn([C@H]2C[C@H](N=[N+]=[N-])[C@@H](COP(=O)(O)OCCO[C@H]3O[C@H](CO)[C@@H](O)[C@H](O)[C@@H]3O)O2)c(=O)[nH]c1=O")
4400
>>> measured_value("CCCCCCCCCCCCCCCCOP(=O)(OCCO[C@H]1O[C@H](CO)[C@@H](O)[C@H](O)[C@@H]1O)OCC1OC(n2cc(C)c(=O)[nH]c2=O)CC1N=[N+]=[N-] (some centres not stated)")
60200
>>> measured_value("Cc1cn([C@H]2C[C@H](N=[N+]=[N-])[C@@H](COP(=O)(O)OC[C@H]3OC(O)[C@H](O)[C@@H](O)[C@@H]3O)O2)c(=O)[nH]c1=O (some centres not stated)")
771
